IC50 for assorted molecules
target-of-assay: KRAS G12V (Homo sapiens (Human), UniProt P01116+P62937, G12V)
Sequence (P01116-2 other isoform, or with tags, fused parts or gaps G12V): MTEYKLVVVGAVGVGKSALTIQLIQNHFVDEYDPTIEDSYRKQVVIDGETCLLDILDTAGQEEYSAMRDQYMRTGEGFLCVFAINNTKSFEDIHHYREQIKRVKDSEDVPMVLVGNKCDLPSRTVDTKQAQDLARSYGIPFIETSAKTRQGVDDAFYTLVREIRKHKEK
Sequence (P62937 whole entry): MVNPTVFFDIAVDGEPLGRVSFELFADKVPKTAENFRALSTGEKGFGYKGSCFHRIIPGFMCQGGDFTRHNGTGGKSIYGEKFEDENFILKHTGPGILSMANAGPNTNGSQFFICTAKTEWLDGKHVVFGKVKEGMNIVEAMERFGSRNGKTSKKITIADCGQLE
test-name: Ras-Raf (BRAF RBD) disruption / FRET / MOA assay, KRAS G12V
Assay type: biochemical
test-context: read-out: IC50* KRAS G12V FRET data

# example entries with known answers
C=CC(=O)N1CC[C@H](C(=O)N(C)[C@H](C(=O)N[C@H]2Cc3nc(ns3)-c3ccc4c(c3)c(c(-c3cncnc3)n4CC)CC(C)(C)COC(=O)[C@@H]3CCCN(N3)C2=O)C(C)C)C1 = > 10000 nM
C=CC(=O)N1CCC(C(=O)N(C)[C@H](C(=O)N[C@H]2Cc3cc(O)cc(c3)-c3ccc4c(c3)c(c(-c3cccnc3[C@H](C)OC)n4CC)CC(C)(C)COC(=O)[C@@H]3CCCN(N3)C2=O)C(C)C)CC1 (atropisomer, axis not shown) = 100 to 1000 nM
C=CC(=O)N1CC[C@H](C(=O)N(C)[C@H](C(=O)N[C@H]2CN(C)C(=O)Cc3ccc4c(c3)c(c(-c3cccnc3COC)n4CC)CC(C)(C)COC(=O)[C@@H]3CCCN(N3)C2=O)C(C)C)C1 = > 10000 nM

Any idea what IC50 was measured for CCn1c(-c2cccnc2[C@H](C)OC)c2c3cc(ccc31)-c1csc(n1)C[C@H](NC(=O)CCO[C@@H]1CCN(C(=O)C#CC(C)(C)N3CCC3)C1)C(=O)N1CCC[C@H](N1)C(=O)OCC(C)(C)C2 (atropisomer, axis not shown) ? 100 to 1000 nM

* * *

The molecules listed here are annotated with their pIC50.
target-of-assay: KRAS G12V (Homo sapiens (Human), UniProt P01116+P62937, G12V)
test-name: Ras-Raf (BRAF RBD) disruption / FRET / MOA assay, KRAS G12V
Assay type: biochemical
test-context: read-out: IC50* KRAS G12V FRET data
pIC50: −log10 of the molar value.

C=CC(=O)N1CC[C@]2(CCN2C(=O)N(C)[C@H](C(=O)N[C@H]2Cc3nc(cs3)-c3ccc4c(c3)c(c(-c3cccnc3[C@H](C)OC)n4CC)CC(C)(C)COC(=O)[C@@H]3CCCN(N3)C2=O)C(C)C)C1 (atropisomer, axis not shown) = 6.00 to 7.00

# query: pIC50 of entry C=CC(=O)N1CC[C@H](C(=O)N(C)[C@H](C(=O)N[C@H]2Cc3cc(O)cc(c3)-c3ccc4c(c3)c(c(-c3cccnc3[C@@H]3CCCO3)n4CC)CC(C)(C)COC(=O)[C@@H]3CCCN(N3)C2=O)C(C)C)C1 (atropisomer, axis not shown) 6.00 to 7.00

Please look up its pIC50: C=C(F)C(=O)N1CC(N(C)C(=O)N(C)[C@H](C(=O)N[C@H]2Cc3nc(cs3)-c3ccc4c(c3)c(c(-c3cccnc3[C@H](C)OC)n4CC)CC(C)(C)COC(=O)[C@@H]3CCCN(N3)C2=O)C(C)C)C1 (atropisomer, axis not shown) 5.00 to 6.00

# input molecule: C=CC(=O)N1C[C@@H](N(C)C(=O)N(C)[C@H](C(=O)N[C@H]2Cc3nc(cs3)-c3ccc4c(c3)c(c(-c3cccnc3[C@H](C)OC)n4CC)CC(C)(C)COC(=O)[C@@H]3CCCN(N3)C2=O)C(C)C)[C@@H](C)C1 (atropisomer, axis not shown) ; wanted: its pIC50 5.00 to 6.00

Can you look up the measured pIC50 of CO[C@@H](C)c1ncc(N2CCN(C)CC2)cc1-c1c2c3cc(ccc3n1CC(F)(F)F)-c1cccc(c1)C[C@H](NC(=O)[C@H](C(C)C)N(C)C(=O)C1(F)CCN(C(=O)C#CC(C)(C)N(C)C)CC1)C(=O)N1CCC[C@H](N1)C(=O)OCC(C)(C)C2 (atropisomer, axis not shown) for me? 7.00 to 8.00

// lookup pIC50 for C=CC(=O)N1CC[C@H](C(=O)N(C)[C@H](C(=O)N[C@H]2Cc3cc(O)cc(c3)-c3ccc4c(c3)c(c(-c3cc(CN(C)C)cnc3[C@H](C)OC)n4CC)CC(C)(C)COC(=O)[C@@H]3CCCN(N3)C2=O)C(C)C)C1 (atropisomer, axis not shown) [Example A537] 7.00 to 8.00

Which pIC50 is listed for CCn1c(-c2cccnc2[C@H](C)OC)c2c3cc(ccc31)-c1cccc(c1)C[C@H](NC(=O)[C@@H](COC1CN(C(=O)C#CC(C)(C)N(C)CCO)C1)C(C)C)C(=O)N1CCC[C@H](N1)C(=O)OCC(C)(C)C2 (atropisomer, axis not shown) ? < 5.00

* * *

target-of-assay: NRAS WT (Homo sapiens (Human), UniProt P01111+P62937)
Sequence (P01111 whole entry, one chain of several): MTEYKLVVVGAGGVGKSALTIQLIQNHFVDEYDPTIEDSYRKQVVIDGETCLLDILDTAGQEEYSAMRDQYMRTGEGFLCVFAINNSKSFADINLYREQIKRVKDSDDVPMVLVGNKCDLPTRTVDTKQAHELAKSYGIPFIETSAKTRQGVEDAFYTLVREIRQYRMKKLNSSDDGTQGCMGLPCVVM
test-name: Ras-Raf (BRAF RBD) disruption / FRET / MOA assay, NRAS WT
Type: biochemical
test-context: read-out: IC50* NRAS WT FRET data
measurement-label: IC50

Would you please look over these solved cases?
C=CC(=O)N1CC[C@H](C(=O)N(C)[C@@H](CC(F)(F)F)C(=O)N[C@H]2Cc3cccc(c3)-c3ccc4c(c3)c(c(-c3cccnc3[C@H](C)OC)n4CC)CC(C)(C)COC(=O)[C@@H]3CCCN(N3)C2=O)C1 (atropisomer, axis not shown) = 1000 to 10000 nM
C=CC(=O)N1CC2(COCCN2C(=O)N(C)[C@H](C(=O)N[C@H]2Cc3nc(cs3)-c3ccc4c(c3)c(c(-c3cccnc3[C@H](C)OC)n4CC)CC(C)(C)COC(=O)[C@@H]3CCCN(N3)C2=O)C(C)C)C1 (atropisomer, axis not shown) = 1000 to 10000 nM
C=CC(=O)N1CCO[C@@]2(CCN(C(=O)N(C)[C@H](C(=O)N[C@H]3Cc4nc(cs4)-c4ccc5c(c4)c(c(-c4cccnc4[C@H](C)OC)n5CC(F)(F)F)CC(C)(C)COC(=O)[C@@H]4CCCN(N4)C3=O)C(C)C)C2)C1 (atropisomer, axis not shown) = 10 to 100 nM

Turning now to a further record.
Please report the recorded IC50 for C=CC(=O)N1CC[C@H](C(=O)N(C)[C@H](C(=O)N[C@H]2Cc3cc(O)cc(c3)-c3ccc4c(c3)c(c(-c3cc(N5CC(OC)C5)ccn3)n4CC)CC(C)(C)COC(=O)[C@@H]3CCCN(N3)C2=O)C(C)C)C1 . 1000 to 10000 nM

* * *

target-of-assay: KRAS G13D (Homo sapiens (Human), UniProt P01116+P62937, G13D)
Sequence (P01116-2 other isoform, or with tags, fused parts or gaps G13D, one chain of several): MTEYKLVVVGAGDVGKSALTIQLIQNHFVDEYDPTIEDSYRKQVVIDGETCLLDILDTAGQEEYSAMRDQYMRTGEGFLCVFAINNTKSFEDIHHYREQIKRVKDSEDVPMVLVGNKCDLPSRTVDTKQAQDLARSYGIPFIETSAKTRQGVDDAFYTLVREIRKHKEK
test-name: Ras-Raf (BRAF RBD) disruption / FRET / MOA assay, KRAS G13D
Assay type: biochemical
test-context: read-out: IC50* KRAS G13D FRET data
pIC50: −log10 of the molar value.
measurement-label: pIC50

Here's what some known entries look like.
C=CC(=O)N1CC[C@H](C(=O)N(C)[C@H](C(=O)N[C@H]2Cc3cc(O)cc(c3)-c3ccc4c(c3)c(c(-c3cc(CN(C)C)cnc3[C@H](C)OC)n4CC)CC(C)(C)COC(=O)[C@@H]3CCCN(N3)C2=O)C(C)C)C1 (atropisomer, axis not shown) [Example A536] = 6.00 to 7.00
C=CC(=O)N1CC2(CCN([C@H](C(=O)N[C@H]3Cc4cc(O)cc(c4)-c4ccc5c(c4)c(c(-c4cccnc4[C@H](C)OC)n5CC)CC(C)(C)COC(=O)[C@@H]4CCCN(N4)C3=O)C(C)C)C2=O)C1 (atropisomer, axis not shown) = 7.00 to 8.00
C=CC(=O)N1CC[C@H](C(=O)N(C)[C@H](C(=O)N(C)[C@H]2Cc3cc(O)cc(c3)-c3ccc4c(c3)c(c(-c3cccnc3COC)n4CC)CC(C)(C)COC(=O)[C@@H]3CCCN(N3)C2=O)C(C)C)C1 = < 5.00
CCn1c(-c2cccnc2[C@H](C)OC)c2c3cc(ccc31)-c1csc(n1)C[C@H](NC(=O)[C@H](C(C)C)N(C)C(=O)N1CCN(C(=O)/C=C/CN3CCOCC3)C3(CC3)C1)C(=O)N1CCC[C@H](N1)C(=O)OCC(C)(C)C2 (atropisomer, axis not shown) = 6.00 to 7.00
CCn1c(-c2cccnc2[C@H](C)OC)c2c3cc(ccc31)-c1cccc(c1)C[C@H](NC(=O)[C@H](C(C)C)N(C)C(=O)[C@H]1CCN(C(=O)C#CC(C)(C)N3CCCC3)C1)C(=O)N1CCC[C@H](N1)C(=O)OCC(C)(C)C2 (atropisomer, axis not shown) = 5.00 to 6.00

So what's the measured pIC50 for this one? CO[C@@H](C)c1ncccc1-c1c2c3cc(ccc3n1CC(F)(F)F)-c1cc(cc(C(F)F)c1)C[C@H](NC(=O)[C@H](C(C)C)N(C)C(=O)[C@H]1CCN(C(=O)C#CC(C)(C)N3CCC3)C1)C(=O)N1CCC[C@H](N1)C(=O)OCC(C)(C)C2 (atropisomer, axis not shown) 5.00 to 6.00

What does the data say about its pIC50? Entry: CCn1c(-c2cccnc2[C@H](C)OC)c2c3cc(ccc31)-c1cccc(c1)C[C@H](NC(=O)[C@H](C(C)C)N1CO[C@@]3(CCN(C(=O)/C=C/CN(C)C)C3)C1=O)C(=O)N1CCC[C@H](N1)C(=O)OCC(C)(C)C2 (atropisomer, axis not shown) 6.00 to 7.00
